# TARGET_SYSTEM: T1, human SIRPβ1 isoform 1 on cells (human, UniProt O00241 30-398)
# T1 construct: On CHO cells (low level), on BWZ/BW5147.G.1.4 cells (reporter cells co-express human DAP12) or on primary human myeloid cells; also called huSIRPβ1; BWZ-huSIRPβ1
# T1 sequence (O00241 30-398): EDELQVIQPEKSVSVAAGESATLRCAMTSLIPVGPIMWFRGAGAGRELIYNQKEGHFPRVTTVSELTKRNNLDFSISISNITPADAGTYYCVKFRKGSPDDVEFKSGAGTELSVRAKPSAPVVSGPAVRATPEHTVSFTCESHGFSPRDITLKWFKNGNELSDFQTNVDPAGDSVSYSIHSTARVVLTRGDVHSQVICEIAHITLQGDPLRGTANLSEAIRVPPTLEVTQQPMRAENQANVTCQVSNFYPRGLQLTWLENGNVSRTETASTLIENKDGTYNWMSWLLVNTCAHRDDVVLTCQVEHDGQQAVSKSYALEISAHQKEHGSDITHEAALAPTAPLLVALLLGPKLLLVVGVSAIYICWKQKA
# PROTOCOL_NOTES: flow cytometry;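 further: antibodies tested at 1 µg/ml for 30 min on ice against receptor-expressing cells, detected with a PE-labelled secondary antibody, read as mean fluorescence intensity relative to background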
Quick reference for FOB among some binders
Kindly provide the numeric value in fold over background only, without the unit symbol.

Below, each entry is followed by its recorded FOB result.
- BINDER: "SB-14 (antibody, V domains shown, IgG) VH: QVQLVQSGAEVKKPGSSVKVSCKASGGTFSSYAISWVRQAPGQGLEWMGGIIPIFGTASYAQKFQGRVTITADESTSTAYMELSSLRSEDTAVYYCARDRGGVGFDYWGQGTLVTVSS VL: EIVMTQSPATLSLSPGERATLSCRASQSVSSYLAWYQQKPGQAPRLLIYDSSNRATGIPARFSGSGSGTDFTLTISSLEPEDFAVYYCQQFSYYPITFGGGTKVEIK"
  FOB, fold over background: 4.5
- BINDER: "SB-4 (antibody, V domains shown, IgG) VH: QVQLVQSGAEVKKPGASVKVSCKASGYTFTSYGISWVRQAPGQGLEWMGWISAYNGNTNYAQKLQGRVTMTTDTSTSTAYMELRSLRSDDTAVYYCARSGTHFGTYSYSNWFDPWGQGTLVTVSS VL: EIVLTQSPGTLSLSPGERATLSCRASQSVSSSYLAWYQQKPGQAPRLLIYGASSRATGIPDRFSGSGSGTDFTLTISRLEPEDFAVYYCQQYADAPITFGGGTKVEIK"
  FOB, fold over background: 1.7
- BINDER: "SB-25 (antibody, V domains shown, IgG) VH: QVQLVQSGAEVKKPGSSVKVSCKASGGTFSSLAISWVRQAPGQGLEWMGGIIPIFGTANYAQKFQGRVTITADESTSTAYMELSSLRSEDTAVYYCARSGGDYSGYDYASGMDVWGQGTTVTVSS VL: DIQMTQSPSSVSASVGDRVTITCRASQGISSWLAWYQQKPGKAPKLLIYAASSLQSGVPSRFSGSGSGTDFTLTISSLQPEDFATYYCQQVNSFPWTFGGGTKVEIK"
  FOB, fold over background: 2.1
- BINDER: "SB-40 (antibody, V domains shown, IgG; also called SB-40 (p)) VH: QVQLVQSGAEVKKPGASVKVSCKASGYTFTSYYMSWVRQAPGQGLEWMGIINPSGGSTSYAQKFQGRVTMTRDTSTSTVYMELSSLRSEDTAVYYCARDTGEYSYSPHGMDVWGQGTTVTVSS VL: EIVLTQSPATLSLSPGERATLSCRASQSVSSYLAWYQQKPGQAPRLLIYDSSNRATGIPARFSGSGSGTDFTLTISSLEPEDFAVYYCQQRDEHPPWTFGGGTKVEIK"
  FOB, fold over background: 7
- BINDER: "SB-31 (antibody, V domains shown, IgG) VH: QVQLVQSGAEVKKPGASVKVSCKASGYTFTSYYMHWVRQAPGQGLEWMGIINPGGGSTSYAQKFQGRVTMTRDTSTSTVYMELSSLRSEDTAVYYCAREGLYSSGWYIDVWGQGTLVTVSS VL: DIQMTQSPSSVSASVGDRVTITCRASQGISSWLAWYQQKPGKAPKLLIYAASSLQSGVPSRFSGSGSGTDFTLTISSLQPEDFATYYCQQAVSHPFTFGGGTKVEIK"
  FOB, fold over background: 3.1

binder SB-47 (antibody, V domains shown, IgG) VH: QLQLQESGPGLVKPSETLSLTCTVSGGSISSSSYAWGWIRQPPGKGLEWIGSIYYSGSTYYNPSLKSRVTISVDTSKNQFSLKLSSVTAADTAVYYCARDLGHYDYWSGSRDYYYGMDVWGQGTTVTVSS VL: DIQMTQSPSSLSASVGDRVTITCQASQDISNYLNWYQQKPGKAPKLLIYDASNLETGVPSRFSGSGSGTDFTFTISSLQPEDIATYYCQQADYFPITFGGGTKVEIK , FOB observed: 1.6

According to the records, this binder SB-8 (antibody, V domains shown, IgG; also called SB-8 (p)) VH: QVQLQESGPGLVKPSETLSLTCAVSGYSISSGYYWGWIRQPPGKGLEWIGSIYHSGSTYYNPSLKSRVTISVDTSKNQFSLKLSSVTAADTAVYYCARGGAMTPAGMDVWGQGTTVTVSS VL: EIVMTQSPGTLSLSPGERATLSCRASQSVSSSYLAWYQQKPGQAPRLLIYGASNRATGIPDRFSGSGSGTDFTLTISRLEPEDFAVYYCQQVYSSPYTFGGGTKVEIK displays FOB of 4.1

response.value for SB-22 (antibody, V domains shown, IgG) VH: EVQLVESGGGLVQPGGSLRLSCAASGFTVSSNYMSWVRQAPGKGLEWVSVIYSDGSTYYADSVKGRFTISRDNSKNTLYLQMNSLRAEDTAVYYCARPTRYGYDRLGMDVWGQGTTVTVSS VL: DIQMTQSPSSVSASVGDRVTITCRASQGISSWLAWYQQKPGKAPKLLIYAASNLQSGVPSRFSGSGSGTDFTLTISSLQPEDFATYYCQQGNSYPITFGGGTKVEIK (field: FOB) = 1.4

Recorded FOB (binder SB-37 (antibody, V domains shown, IgG) VH: QVQLVQSGAEVKKPGSSVKVSCKASGGTFSNYAISWVRQAPGQGLEWMGGIIPIFGTANYAQKFQGRVTITADESTSTAYMELSSLRSEDTAVYYCARSRWGASGYYYYMDVWGQGTMVTVSS VL: EIVLTQSPATLSLSPGERATLSCRASQSVSSYLAWYQQKPGQAPRLLIYDASNRATGIPARFSGSGSGTDFTLTISSLEPEDFAVYYCQQRHTYPLTFGGGTKVEIK ): 3.8

FOB for SB-49 (antibody, V domains shown, IgG) VH: QLQLQESGPGLVKPSETLSLTCTVSGGSISSSDYYWGWIRQPPGKGLEWIGSIYYSGSTYYNPSLKSRVTISVDTSKNQFSLKLSSVTAADTAVYYCARGPTGYKDKWRYYYGMDVWGQGTTVTVSS VL: DIQMTQSPSSLSASVGDRVTITCQASQDITNYLNWYQQKPGKAPKLLIYDASNLETGVPSRFSGSGSGTDFTFTISSLQPEDIATYYCQQYFHPPLTFGGGTKVEIK is 3.4

SB-23 (antibody, V domains shown, IgG) VH: QVQLVQSGAEVKKPGSSVKVSCKASGGTFSSYAISWVRQAPGQGLEWMGGIAPIFGTANYAQKFQGRVTITADESTSTAYMELSSLRSEDTAVYYCARTTYRDYYMDVWGKGTTVTVSS VL: DIQMTQSPSSLSASVGDRVTITCRASQSISSYLNWYQQKPGKAPKLLIYAASSLQSGVPSRFSGSGSGTDFTLTISSLQPEDFATYYCQQAYPYPLTFGGGTKVEIK has a reported FOB of 2.4
